- measurement.notes: Selectivity index, ratio of CC50 for human A549 cells to EC50 for HIV/EBOV-GP infected in human A549 cells
- Assay type: toxicity, cell-based
- assay.setup: read-out: Ratio CC50/EC50
Rule: selectivity ratio of 70 or more gives T; anything lower gives F.

compound: O=C(c1ccc(CN2CCCCC2)cc1)N1CCc2ccc(C(F)(F)F)cc21
answer.label: F

compound: O=C(Nc1ccc(C2CCCCC2)cc1)c1ccc(CN2CCCCC2)c(F)c1
answer.label: T

compound: O=C(c1ccc(CN2CCCCC2)cc1)N1CCc2ccc(Cl)cc21
answer.label: F

compound: O=C(Nc1ccc(C(F)(F)F)c(Cl)c1)c1ccc(CN2CCCCC2)cc1
answer.label: F

compound: CC(c1ccc(C(=O)Nc2ccc(C3CCCCC3)cc2)cc1)N1CCCCC1 (stereo not drawn)
answer.label: T

compound: O=C(Nc1ccc(C2CCCCC2)cc1)c1ccc(CN2CCCCC2)cc1
answer.label: T

compound: CC(c1ccc(C(=O)N2CC(C(C)(C)C)c3ccccc32)cc1)N1CCCCC1 (stereo not drawn)
answer.label: T
